- System: K12877-001-R-J1-PDC complex spheroid viability
- experiment.summary: Anticancer human tumor K12877-001-R-J1-PDC patient-derived lung adenocarcinoma cell line growth inhibition [RAS]
- reported.conditions: second compound 0.000949 µM; first compound 0.01 µM; hits give low values
measurement.type: viability, T/C (%)
# unit: % | format: bare number

// recorded viability, T/C for Nc1ccn(C2OC(CO)C(O)C2(F)F)c(=O)n1 (stereo not drawn) + CCn1c(-c2cc(N3CCN(C)CC3)cnc2C(C)OC)c2c3cc(ccc31)-c1csc(n1)CC(NC(=O)C1CC1C)C(=O)N1CCCC(N1)C(=O)OCC(C)(C)C2 : 66.7

// recorded viability, T/C for O=C(c1ccc(F)c(F)c1Nc1ccc(I)cc1F)N1CC(O)([C@@H]2CCCCN2)C1 + CCn1c(-c2cccnc2C(C)OC)c2c3cc(ccc31)N1CCOC(CC(NC(=O)C(C(C)C)N(C)C(=O)C3(F)CCN(C(=O)C#CC(C)(C)N(C)C)CC3)C(=O)N3CCCC(N3)C(=O)OCC(C)(C)C2)C1 : 77.5

// recorded viability, T/C for O=C(c1ccc(F)c(F)c1Nc1ccc(I)cc1F)N1CC(O)([C@@H]2CCCCN2)C1 + CCn1c(-c2cc(N3CCN(C)CC3)cnc2C(C)OC)c2c3cc(ccc31)-c1csc(n1)CC(NC(=O)C1CC1C)C(=O)N1CCCC(N1)C(=O)OCC(C)(C)C2 : 71.2

// recorded viability, T/C for CC(C)n1nc(-c2ccc3oc(N)nc3c2)c2c(N)ncnc21 + CCn1c(-c2cc(N3CCN(C)CC3)cnc2C(C)OC)c2c3cc(ccc31)-c1csc(n1)CC(NC(=O)C1CC1C)C(=O)N1CCCC(N1)C(=O)OCC(C)(C)C2 : 104

// recorded viability, T/C for Nc1ccn(C2OC(CO)C(O)C2(F)F)c(=O)n1 (stereo not drawn) + CCn1c(-c2cccnc2C(C)OC)c2c3cc(ccc31)N1CCOC(CC(NC(=O)C(C(C)C)N(C)C(=O)C3(F)CCN(C(=O)C#CC(C)(C)N(C)C)CC3)C(=O)N3CCCC(N3)C(=O)OCC(C)(C)C2)C1 : 71.9

---

- Tested on: K12877-001-R-J1-PDC complex spheroid viability
- experiment.summary: Anticancer human tumor K12877-001-R-J1-PDC cell line growth inhibition [RAS];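 further: tumour cells co-cultured with HUVEC and mesenchymal stem cells in spheroids; spheroids exposed to agents for one week before readout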
- reported.conditions: second compound 0.1 µM; first compound 3.16 µM; hits give low values
measurement.type: viability, T/C (%)
# unit: % | format: bare number

Reference set, count: 4
{"columns": ["molecule", "value.observed"],
 "data": [
  ["NC1c2ccccc2OC12CCN(c1cnc3c(N4CCCc5ncccc54)n[nH]c3n1)CC2 (stereo not given) + C=CC(=O)N1CCN(c2nc(OCC3CCCN3C)nc3c(F)c(-c4nc(N)cc(C)c4C(F)(F)F)c(Cl)cc23)C(C)C1", 54.7],
  ["NC1c2ccccc2OC12CCN(c1cnc3c(N4CCCc5ncccc54)n[nH]c3n1)CC2 (stereo not given) + C#Cc1c(F)ccc2cc(O)cc(-c3ncc4c(N5CC6CCC(C5)N6)nc(OCC56CCCN5CC(F)C6)nc4c3F)c12", 84.2],
  ["CC(Nc1ccc2c(c1)OCCn1cc(N3C(=O)OCC3C(F)F)nc1-2)C(N)=O (stereo not given) + C=CC(=O)N1CCN(c2nc(OCC3CCCN3C)nc3c(F)c(-c4nc(N)cc(C)c4C(F)(F)F)c(Cl)cc23)C(C)C1", 40.4],
  ["CCC(CC)c1cc(NC2CCC(N)C2)n2nccc2n1 (stereo not given) + C=CC(=O)N1CCN(c2nc(OCC3CCCN3C)nc3c(F)c(-c4nc(N)cc(C)c4C(F)(F)F)c(Cl)cc23)C(C)C1", 1.91]
]}

API: the following record is the query input.
// recorded viability, T/C for CC(=O)OC12COC1CC(O)C1(C)C(=O)C(O)C3=C(C)C(OC(=O)C(O)C(NC(=O)OC(C)(C)C)c4ccccc4)CC(O)(C(OC(=O)c4ccccc4)C21)C3(C)C (stereo not given) + C#Cc1c(F)ccc2cc(O)cc(-c3ncc4c(N5CC6CCC(C5)N6)nc(OCC56CCCN5CC(F)C6)nc4c3F)c12 : 6.17

---

- Test system: K12877-001-R-J1-PDC complex spheroid viability
- experiment.summary: Anticancer human tumor K12877-001-R-J1-PDC cell line growth inhibition [RAS];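 further: tumour cells co-cultured with HUVEC and mesenchymal stem cells in spheroids; spheroids exposed to agents for one week before readout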
- reported.conditions: second compound 0.316 µM; first compound 1 µM; hits give low values
measurement.type: viability, T/C

{"columns": ["compound", "viability, T/C"],
 "data": [
  ["C=CC(=O)Nc1cc(Nc2nccc(-c3cn(C)c4ccccc34)n2)c(OC)cc1N(C)CCN(C)C + C=CC(=O)N1CCN(c2nc(OCC3CCCN3C)nc3c(F)c(-c4nc(N)cc(C)c4C(F)(F)F)c(Cl)cc23)C(C)C1", "72.6%"]
]}

// recorded viability, T/C for NC1c2ccccc2OC12CCN(c1cnc3c(N4CCCc5ncccc54)n[nH]c3n1)CC2 (stereo unspecified) + C#Cc1c(F)ccc2cc(O)cc(-c3ncc4c(N5CC6CCC(C5)N6)nc(OCC56CCCN5CC(F)C6)nc4c3F)c12 : 86.8%

// recorded viability, T/C for Cc1nc(N2CCC3(CC2)COC(C)C3N)c(CO)nc1Sc1ccnc(N)c1Cl (stereo unspecified) + C#Cc1c(F)ccc2cc(O)cc(-c3ncc4c(N5CC6CCC(C5)N6)nc(OCC56CCCN5CC(F)C6)nc4c3F)c12 : 92.9%

// recorded viability, T/C for CC(C)NCC(C(=O)N1CCN(c2ncnc3c2C(C)CC3O)CC1)c1ccc(Cl)cc1 (stereo unspecified) + C#Cc1c(F)ccc2cc(O)cc(-c3ncc4c(N5CC6CCC(C5)N6)nc(OCC56CCCN5CC(F)C6)nc4c3F)c12 : 92.4%

// recorded viability, T/C for Nc1ccn(C2OC(CO)C(O)C2(F)F)c(=O)n1 (stereo unspecified) + C#Cc1c(F)ccc2cc(O)cc(-c3ncc4c(N5CC6CCC(C5)N6)nc(OCC56CCCN5CC(F)C6)nc4c3F)c12 : 6.35%

// recorded viability, T/C for CC1(O)CCCC1n1c(=O)c(C(F)F)cc2cnc(NC3CCN(S(C)(=O)=O)CC3)nc21 (stereo unspecified) + C#Cc1c(F)ccc2cc(O)cc(-c3ncc4c(N5CC6CCC(C5)N6)nc(OCC56CCCN5CC(F)C6)nc4c3F)c12 : 81.1%

---

Listed here: items and their measured viability, T/C.
- Tested on: K12877-001-R-J1-PDC complex spheroid viability
- experiment.summary: Anticancer human tumor K12877-001-R-J1-PDC cell line growth inhibition [RAS];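 further: tumour cells co-cultured with HUVEC and mesenchymal stem cells in spheroids; spheroids exposed to agents for one week before readout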
- reported.conditions: second compound 0.003 µM; first compound 0.00949 µM; hits give low values
# unit: % | format: bare number

Reference set, count: 3
{"columns": ["compound", "viability, T/C, %"],
 "data": [
  ["CCc1c2c(nc3ccc(O)cc13)-c1cc3c(c(=O)n1C2)COC(=O)[C@]3(O)CC + CCn1c(-c2cc(N3CCN(C)CC3)cnc2C(C)OC)c2c3cc(ccc31)-c1csc(n1)CC(NC(=O)C1CC1C)C(=O)N1CCCC(N1)C(=O)OCC(C)(C)C2", 13.6],
  ["CC1(C)CCC(Nc2ncc(C(F)(F)F)c(-c3c[nH]c4c(P(C)(C)=O)c(C#N)ccc34)n2)CN1 (centres undefined) + CCn1c(-c2cc(N3CCN(C)CC3)cnc2C(C)OC)c2c3cc(ccc31)-c1csc(n1)CC(NC(=O)C1CC1C)C(=O)N1CCCC(N1)C(=O)OCC(C)(C)C2", 65.3],
  ["CCc1c2c(nc3ccc(O)cc13)-c1cc3c(c(=O)n1C2)COC(=O)[C@]3(O)CC + CCn1c(-c2cccnc2C(C)OC)c2c3cc(ccc31)N1CCOC(CC(NC(=O)C(C(C)C)N(C)C(=O)C3(F)CCN(C(=O)C#CC(C)(C)N(C)C)CC3)C(=O)N3CCCC(N3)C(=O)OCC(C)(C)C2)C1", 8.47]
]}

API: the following record is the query input.
K12877-001-R-J1-PDC complex spheroid viability assay, compound CC1(C)CCC(Nc2ncc(C(F)(F)F)c(-c3c[nH]c4c(P(C)(C)=O)c(C#N)ccc34)n2)CN1 (centres undefined) + CCn1c(-c2cccnc2C(C)OC)c2c3cc(ccc31)N1CCOC(CC(NC(=O)C(C(C)C)N(C)C(=O)C3(F)CCN(C(=O)C#CC(C)(C)N(C)C)CC3)C(=O)N3CCCC(N3)C(=O)OCC(C)(C)C2)C1 , recorded viability, T/C = 57.8

---

- Test system: K12877-001-R-J1-PDC complex spheroid viability
- experiment.summary: Anticancer human tumor K12877-001-R-J1-PDC cell line growth inhibition [RAS];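 further: tumour cells co-cultured with HUVEC and mesenchymal stem cells in spheroids; spheroids exposed to agents for one week before readout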
- reported.conditions: second compound 0.00316 µM; first compound 10 µM; hits give low values
- Text: RAS pathway inhibitors in Combinations in Complex Spheroids A high-throughput screen of multi-cell type tumor spheroids was designed to identify active combinations of RAS pathway inhibitors and targeted small molecules. Complex spheroids include a stromal component modeled by human endothelial cells (HUVEC) and fibroblasts modeled by human mesenchymal stem cells (MSCs). […] Compounds. […] If the clinical Cmax for an agent had not been determined, the highest concentration tested was 10 microM. […]
measurement.type: viability, T/C (%)
# unit: % | format: bare number

Reference set, count: 3
{"columns": ["molecule", "viability, T/C (%)"],
 "data": [
  ["Cc1nc(N2CCC3(CC2)COC(C)C3N)c(CO)nc1Sc1ccnc(N)c1Cl (stereo not given) + C=CC(=O)N1CCN(c2nc(OCC3CCCN3C)nc3c(F)c(-c4nc(N)cc(C)c4C(F)(F)F)c(Cl)cc23)C(C)C1", 93],
  ["CC(C)NCC(C(=O)N1CCN(c2ncnc3c2C(C)CC3O)CC1)c1ccc(Cl)cc1 (stereo not given) + C=CC(=O)N1CCN(c2nc(OCC3CCCN3C)nc3c(F)c(-c4nc(N)cc(C)c4C(F)(F)F)c(Cl)cc23)C(C)C1", 22],
  ["NC1c2ccccc2OC12CCN(c1cnc3c(N4CCCc5ncccc54)n[nH]c3n1)CC2 (stereo not given) + C=CC(=O)N1CCN(c2nc(OCC3CCCN3C)nc3c(F)c(-c4nc(N)cc(C)c4C(F)(F)F)c(Cl)cc23)C(C)C1", 52.7]
]}

// recorded viability, T/C for CCC(CC)c1cc(NC2CCC(N)C2)n2nccc2n1 (stereo not given) + C=CC(=O)N1CCN(c2nc(OCC3CCCN3C)nc3c(F)c(-c4nc(N)cc(C)c4C(F)(F)F)c(Cl)cc23)C(C)C1 : 0.94

// recorded viability, T/C for CC(=O)OC12COC1CC(O)C1(C)C(=O)C(O)C3=C(C)C(OC(=O)C(O)C(NC(=O)OC(C)(C)C)c4ccccc4)CC(O)(C(OC(=O)c4ccccc4)C21)C3(C)C (stereo not given) + C=CC(=O)N1CCN(c2nc(OCC3CCCN3C)nc3c(F)c(-c4nc(N)cc(C)c4C(F)(F)F)c(Cl)cc23)C(C)C1 : 16.1
